Molecular target: Rvs167, P39743
Sequence (P39743 419-482): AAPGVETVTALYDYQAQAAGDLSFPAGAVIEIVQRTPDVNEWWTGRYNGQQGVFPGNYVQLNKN
Test: SPOT array
Settings: median of control spots 2707
endpoint: SPOT intensity

QQEQNTPPLPPKPKS :: 0

(P) FPPKRKPLLRPQRSD
(Q) RPVPRRPSQPLNTLS
(R) LYKRKPILLPDPKPL
// ascending sort on recorded SPOT intensity Return value: ordered labels per request.
R, P, Q
(R: 0, P: 25, Q: 4060)
